Measured values drawn from BigSolDB 2.1 for this set.

- applied-conditions: in propylene glycol, 283.15 K
endpoint-label: solubility (mole fraction)
// return just the number, without any unit appended

Q: Given the compound Nc1ccc(Br)nn1 , write its reported solubility (mole fraction).
Ans: 0.00205

----------
- applied-conditions: in water, 283.15 K
endpoint-label: solubility (mole fraction)

Q: Given the molecule Nc1ccc(Br)nn1 , write its reported solubility (mole fraction).
Ans: 2.74e-05

----------
- applied-conditions: in n-butanol, 313.15 K
endpoint-label: solubility (mole fraction)
// return just the number, without any unit appended

Q: Given the compound Nc1ccc(Br)nn1 , write its reported solubility (mole fraction).
Ans: 0.00759

----------
- applied-conditions: in n-propanol, 298.15 K
endpoint-label: solubility (mole fraction)
// return just the number, without any unit appended

Q: Given the compound Nc1ccc(Br)nn1 , write its reported solubility (mole fraction).
Ans: 0.00496

----------
- applied-conditions: in acetone, 288.15 K
endpoint-label: solubility (mole fraction)
// return just the number, without any unit appended

Q: Given the molecule Nc1ccc(Br)nn1 , write its reported solubility (mole fraction).
Ans: 0.0092

----------
- applied-conditions: in acetone, 313.15 K
endpoint-label: solubility (mole fraction)

Q: Given the molecule Nc1ccc(Br)nn1 , write its reported solubility (mole fraction).
Ans: 0.0153

----------
- applied-conditions: in n-butanol, 298.15 K
endpoint-label: solubility (mole fraction)

Q: Given the molecule Nc1ccc(Br)nn1 , write its reported solubility (mole fraction).
Ans: 0.00556

----------
- applied-conditions: in water, 323.15 K
endpoint-label: solubility (mole fraction)
// return just the number, without any unit appended

Q: Given the compound Nc1ccc(Br)nn1 , write its reported solubility (mole fraction).
Ans: 4.98e-05

----------
- applied-conditions: in toluene, 278.15 K
endpoint-label: solubility (mole fraction)
// return just the number, without any unit appended

Q: Given the compound Nc1ccc(Br)nn1 , write its reported solubility (mole fraction).
Ans: 0.00989

----------
- applied-conditions: in methanol, 278.15 K
endpoint-label: solubility (mole fraction)
// return just the number, without any unit appended

Q: Given the compound Nc1ccc(Br)nn1 , write its reported solubility (mole fraction).
Ans: 0.00108

----------
- applied-conditions: in acetone, 318.15 K
endpoint-label: solubility (mole fraction)
// return just the number, without any unit appended

Q: Given the compound Nc1ccc(Br)nn1 , write its reported solubility (mole fraction).
Ans: 0.0169

----------
- applied-conditions: in methanol, 288.15 K
endpoint-label: solubility (mole fraction)
// return just the number, without any unit appended

Q: Given the molecule Nc1ccc(Br)nn1 , write its reported solubility (mole fraction).
Ans: 0.00123

----------
- applied-conditions: in acetone, 323.15 K
endpoint-label: solubility (mole fraction)

Q: Given the molecule Nc1ccc(Br)nn1 , write its reported solubility (mole fraction).
Ans: 0.0188

----------
- applied-conditions: in n-butanol, 278.15 K
endpoint-label: solubility (mole fraction)
// return just the number, without any unit appended

Q: Given the compound Nc1ccc(Br)nn1 , write its reported solubility (mole fraction).
Ans: 0.00362

----------
- applied-conditions: in isopropanol, 318.15 K
endpoint-label: solubility (mole fraction)

Q: Given the compound Nc1ccc(Br)nn1 , write its reported solubility (mole fraction).
Ans: 0.00649

----------
- applied-conditions: in ethanol, 308.15 K
endpoint-label: solubility (mole fraction)
// return just the number, without any unit appended

Q: Given the compound Nc1ccc(Br)nn1 , write its reported solubility (mole fraction).
Ans: 0.0034

----------
- applied-conditions: in DMF, 313.15 K
endpoint-label: solubility (mole fraction)
// return just the number, without any unit appended

Q: Given the molecule Nc1ccc(Br)nn1 , write its reported solubility (mole fraction).
Ans: 0.0206

----------
- applied-conditions: in n-propanol, 283.15 K
endpoint-label: solubility (mole fraction)
// return just the number, without any unit appended

Q: Given the molecule Nc1ccc(Br)nn1 , write its reported solubility (mole fraction).
Ans: 0.00356

----------
- applied-conditions: in methanol, 303.15 K
endpoint-label: solubility (mole fraction)
// return just the number, without any unit appended

Q: Given the molecule Nc1ccc(Br)nn1 , write its reported solubility (mole fraction).
Ans: 0.00152

----------
- applied-conditions: in toluene, 313.15 K
endpoint-label: solubility (mole fraction)
// return just the number, without any unit appended

Q: Given the compound Nc1ccc(Br)nn1 , write its reported solubility (mole fraction).
Ans: 0.018

----------
- applied-conditions: in ethanol, 283.15 K
endpoint-label: solubility (mole fraction)
// return just the number, without any unit appended

Q: Given the compound Nc1ccc(Br)nn1 , write its reported solubility (mole fraction).
Ans: 0.00233

----------
- applied-conditions: in n-propanol, 313.15 K
endpoint-label: solubility (mole fraction)

Q: Given the compound Nc1ccc(Br)nn1 , write its reported solubility (mole fraction).
Ans: 0.00683

----------
- applied-conditions: in n-propanol, 303.15 K
endpoint-label: solubility (mole fraction)

Q: Given the compound Nc1ccc(Br)nn1 , write its reported solubility (mole fraction).
Ans: 0.00557

----------
- applied-conditions: in n-butanol, 318.15 K
endpoint-label: solubility (mole fraction)
// return just the number, without any unit appended

Q: Given the molecule Nc1ccc(Br)nn1 , write its reported solubility (mole fraction).
Ans: 0.00838

----------
- applied-conditions: in methanol, 313.15 K
endpoint-label: solubility (mole fraction)
// return just the number, without any unit appended

Q: Given the compound Nc1ccc(Br)nn1 , write its reported solubility (mole fraction).
Ans: 0.00178

----------
- applied-conditions: in acetone, 308.15 K
endpoint-label: solubility (mole fraction)
// return just the number, without any unit appended

Q: Given the molecule Nc1ccc(Br)nn1 , write its reported solubility (mole fraction).
Ans: 0.0138
